System: SK-MEL-2 melanoma
Experiment: NCI-60 one-dose screen, 48 h (100 = growth as untreated, 0 = no growth, -100 = all killed)
Conditions: 10 µM unless noted
The panel holds about 83,000 compounds, 20% with a hit somewhere; the sample as a whole holds those more often.
Assignment: determine reported growth for the given compounds.
Report the figure in % without appending any unit label.

Entry O=C(Nc1ccccc1)OCC1OCOC(COC(=O)Nc2ccccc2)C1OC(=O)Nc1ccccc1 (stereo unspecified) ; growth = 109

Kindly note the recorded growth for `CC/C=C\C/C=C\C[C@H]1C/C=C2/C(=O)C=C[C@H]2C/C=C\CCC(=O)O1` , which is 7.15

Reported growth ( `COc1cc(OC)c(C(=O)/C=C/c2ccc(C#N)cc2)c(OC)c1` ) = -11

Short answer for `C=C1C(=O)O[C@H]2[C@H]1CC/C(Cn1cc(-c3ccsc3)nn1)=C\CC[C@@]1(C)O[C@@H]21` : growth was -21.5

# growth (compound: `Cc1ccc(Oc2nc3ccccc3cc2-c2nnc(Cn3c(COc4ccccc4)nc4ccccc43)o2)cc1` ) is 89.8

Lookup result for `N#Cc1ccc(NC(=O)c2ccc3cccnc3c2O)cc1` ; measured growth: 41.3

Field growth (entry `COc1ccc(C(=O)N2CCN(C(=O)c3cc(OC)c(OC)c(OC)c3)CC2)cc1OCCCCOc1cc2c(cc1OC)C(=O)N1CCC[C@H]1C=N2` ) reads 31.9

Record `O=C(CCCn1c(=O)c2sc3ccccc3c2n2nnc(-c3ccccc3)c12)NCCc1cnc[nH]1` . Reported growth: -49.2

Recorded result, `COc1cc(-c2cc(/C=C3\CCCCC3=O)[nH]n2)cc(OC)c1OC` , growth: 94.7

Sure, the documented growth for `CCCCCC/C=C\CCCCCCCCOc1ccc(CCOP(=O)(O)OCC[N+](C)(C)C)cc1` is 91

Input `COc1ccc(-c2nnc(COc3ccc(NC(=O)Nc4ccc(Cl)c(C(F)(F)F)c4)cc3F)o2)cc1` . Output growth: -7.3
